Source of measurements: patent US10227324B2

target: PI3K-α kinase (p110α/p85α) (Homo sapiens, UniProt P42336); construct: purchased Invitrogen PV4788; assay: Determination of PI3K kinase activity (ADP Transcreener, fluorescence polarization); type: biochemical; conditions: Table 1; ATP 10 μM; read-out: PI3K-α/nM (IC50 of inhibitory activity against PI3K kinase)
Sequence (P42336 whole entry): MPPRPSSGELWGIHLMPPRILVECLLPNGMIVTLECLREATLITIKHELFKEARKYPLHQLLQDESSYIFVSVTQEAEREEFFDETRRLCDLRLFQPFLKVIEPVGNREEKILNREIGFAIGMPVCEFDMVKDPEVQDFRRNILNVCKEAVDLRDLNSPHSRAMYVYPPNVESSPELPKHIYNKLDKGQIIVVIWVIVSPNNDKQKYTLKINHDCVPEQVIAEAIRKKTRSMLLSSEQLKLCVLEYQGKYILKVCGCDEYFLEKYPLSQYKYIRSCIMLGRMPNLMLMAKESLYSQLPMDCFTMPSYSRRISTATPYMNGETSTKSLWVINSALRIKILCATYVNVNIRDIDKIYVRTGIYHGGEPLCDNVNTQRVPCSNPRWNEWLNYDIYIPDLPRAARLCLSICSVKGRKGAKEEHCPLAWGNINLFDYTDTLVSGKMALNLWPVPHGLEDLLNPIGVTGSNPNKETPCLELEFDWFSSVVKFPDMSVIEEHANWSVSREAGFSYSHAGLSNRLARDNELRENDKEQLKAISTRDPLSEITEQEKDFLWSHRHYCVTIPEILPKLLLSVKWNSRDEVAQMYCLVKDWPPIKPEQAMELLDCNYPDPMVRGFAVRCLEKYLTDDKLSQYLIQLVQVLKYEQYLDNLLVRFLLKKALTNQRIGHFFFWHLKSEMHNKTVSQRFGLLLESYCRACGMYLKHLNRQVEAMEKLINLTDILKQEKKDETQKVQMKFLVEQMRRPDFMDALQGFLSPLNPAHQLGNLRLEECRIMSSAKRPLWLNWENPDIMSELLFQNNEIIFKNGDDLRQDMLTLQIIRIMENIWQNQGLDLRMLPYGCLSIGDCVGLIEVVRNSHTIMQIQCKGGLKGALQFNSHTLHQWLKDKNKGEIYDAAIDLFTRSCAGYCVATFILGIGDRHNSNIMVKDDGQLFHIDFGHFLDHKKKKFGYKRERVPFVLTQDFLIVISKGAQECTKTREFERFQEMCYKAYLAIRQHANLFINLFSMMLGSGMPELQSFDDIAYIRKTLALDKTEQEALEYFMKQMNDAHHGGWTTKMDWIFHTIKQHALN
Sequence (P27986 whole entry partner): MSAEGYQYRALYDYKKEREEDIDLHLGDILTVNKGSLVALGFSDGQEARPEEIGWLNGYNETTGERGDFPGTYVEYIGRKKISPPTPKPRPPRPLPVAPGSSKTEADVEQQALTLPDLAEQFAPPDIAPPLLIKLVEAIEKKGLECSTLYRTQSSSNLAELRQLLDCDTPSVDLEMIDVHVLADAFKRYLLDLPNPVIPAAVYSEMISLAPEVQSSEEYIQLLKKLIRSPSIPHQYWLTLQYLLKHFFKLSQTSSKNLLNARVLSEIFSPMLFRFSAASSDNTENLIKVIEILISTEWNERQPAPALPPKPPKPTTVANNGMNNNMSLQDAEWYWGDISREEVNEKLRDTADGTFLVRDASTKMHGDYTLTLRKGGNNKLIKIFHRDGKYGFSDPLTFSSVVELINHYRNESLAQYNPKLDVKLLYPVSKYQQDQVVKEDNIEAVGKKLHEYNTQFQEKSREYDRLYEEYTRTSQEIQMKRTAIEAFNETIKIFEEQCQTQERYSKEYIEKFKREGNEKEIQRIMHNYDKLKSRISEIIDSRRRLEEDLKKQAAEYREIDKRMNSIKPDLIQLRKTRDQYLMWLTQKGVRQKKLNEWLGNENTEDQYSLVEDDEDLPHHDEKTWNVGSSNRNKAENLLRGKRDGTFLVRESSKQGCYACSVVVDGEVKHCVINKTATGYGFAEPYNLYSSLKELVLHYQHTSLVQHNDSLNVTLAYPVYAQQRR
Readout type: IC50 (nM)

CS(=O)(=O)C1(c2cc(-c3cnc(N)cc3C(F)(F)F)nc(N3CCOCC3)n2)CCCC1 :: 42

a: CS(=O)(=O)C(F)(F)c1cc(-c2cnc(N)cc2C(F)(F)F)nc(N2CCOCC2)n1
b: C[C@@H]1COCCN1c1nc(-c2cnc(N)cc2C(F)(F)F)cc(C(C)(C)O)n1
## Input Lab note: check whether a or b shows the higher recorded IC50. In your reply, give the label of the chosen option.
## Output a

* * *

biological target: PI3K-γ kinase (p110γ) (Homo sapiens); construct: purchased Invitrogen PV4786; test: Determination of PI3K kinase activity (ADP Transcreener, fluorescence polarization); type: biochemical; conditions: Table 1; ATP 10 μM; read-out: PI3K-γ/nM (IC50 of inhibitory activity against PI3K kinase)
Sequence (P48736 whole entry): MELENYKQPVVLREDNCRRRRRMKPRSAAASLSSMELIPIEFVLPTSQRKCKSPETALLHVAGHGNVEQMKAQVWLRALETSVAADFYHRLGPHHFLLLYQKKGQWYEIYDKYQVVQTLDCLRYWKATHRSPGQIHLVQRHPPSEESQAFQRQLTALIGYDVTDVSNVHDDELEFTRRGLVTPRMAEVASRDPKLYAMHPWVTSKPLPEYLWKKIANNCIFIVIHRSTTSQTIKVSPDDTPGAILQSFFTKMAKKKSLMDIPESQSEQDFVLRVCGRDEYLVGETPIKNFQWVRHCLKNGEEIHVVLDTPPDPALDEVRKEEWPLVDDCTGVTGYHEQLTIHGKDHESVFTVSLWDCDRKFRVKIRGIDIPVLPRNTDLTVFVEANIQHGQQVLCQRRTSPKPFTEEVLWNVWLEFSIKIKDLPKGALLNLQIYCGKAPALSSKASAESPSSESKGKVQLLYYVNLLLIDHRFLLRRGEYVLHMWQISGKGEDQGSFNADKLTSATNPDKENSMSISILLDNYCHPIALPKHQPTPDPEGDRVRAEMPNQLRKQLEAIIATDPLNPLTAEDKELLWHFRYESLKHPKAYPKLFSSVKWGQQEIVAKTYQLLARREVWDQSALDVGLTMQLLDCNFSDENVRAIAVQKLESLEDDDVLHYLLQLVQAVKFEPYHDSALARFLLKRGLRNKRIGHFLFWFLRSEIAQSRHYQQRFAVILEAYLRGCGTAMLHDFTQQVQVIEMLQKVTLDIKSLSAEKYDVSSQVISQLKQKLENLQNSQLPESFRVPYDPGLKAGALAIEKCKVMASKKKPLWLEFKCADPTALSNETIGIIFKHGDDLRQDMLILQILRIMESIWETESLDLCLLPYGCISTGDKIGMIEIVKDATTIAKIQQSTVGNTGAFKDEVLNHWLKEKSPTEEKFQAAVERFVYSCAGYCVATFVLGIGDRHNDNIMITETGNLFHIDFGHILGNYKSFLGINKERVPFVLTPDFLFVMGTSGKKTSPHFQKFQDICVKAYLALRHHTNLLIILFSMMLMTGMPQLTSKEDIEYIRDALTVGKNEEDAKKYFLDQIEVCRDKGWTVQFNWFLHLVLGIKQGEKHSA
Readout type: IC50 (nM)

// worked examples, IC50 included
C[C@H]1COCCN1c1nc(-c2cnc(N)cc2C(F)(F)F)cc(C2(S(C)(=O)=O)CCCC2)n1 :: 718
CCS(=O)(=O)C1(c2cc(-c3cnc(N)cc3C(F)(F)F)nc(N3CCOC[C@@H]3C)n2)CCC1 :: 525
COC(C)(C)c1cc(-c2cnc(N)cc2C(F)(F)F)nc(N2CCOC[C@H]2C)n1 :: 2500

a: C[C@H]1COCCN1c1nc(-c2cnc(N)cc2C(F)(F)F)cc(C2(S(C)(=O)=O)CCC2)n1
b: COC(C)(C)c1cc(-c2cnc(N)cc2Cl)nc(N2CCOCC2)n1
## Input Lab note: check whether a or b shows the higher recorded IC50. In your reply, give the label of the chosen option.
## Output b
(b: 228 nM, a: 155 nM)

1: Nc1cc(C(F)(F)F)c(-c2cc(C3(S(=O)(=O)c4ccccc4Cl)CC3)nc(N3CCOCC3)n2)cn1
2: Nc1cc(F)c(-c2cc(C3(S(=O)(=O)C4CC4)CC3)nc(N3CCOCC3)n2)cn1
3: C[C@@H]1COCCN1c1nc(-c2cnc(N)cc2Cl)cc(C2(S(C)(=O)=O)CC2)n1
## Input Would you mind ranking these compounds by ascending IC50? Present the labels in the sequence the task asks for.
## Output 2, 3, 1
(2: 98 nM, 3: 184 nM, 1: 925 nM)

* * *

target: PI3K-α kinase (p110α/p85α) (Homo sapiens); construct: purchased Invitrogen PV4788; test: Determination of PI3K kinase activity (ADP Transcreener, fluorescence polarization); type: biochemical; conditions: Table 2; ATP 10 μM; read-out: PI3K-α/nM (IC50 of inhibitory activity against PI3K-α kinase)
Readout type: IC50 (nM)

// worked examples, IC50 included
CC(C)(c1cc(-c2cnc(N)cc2C(F)(F)F)nc(N2CCOCC2)n1)S(=O)(=O)c1ccccc1F :: 22
CS(=O)(=O)Cc1cc(-c2cnc(N)cc2C(F)(F)F)nc(N2CCOCC2)n1 :: 189
COC(C)(C)c1cc(-c2cnc(N)cc2C(F)(F)F)nc(N2CCOC[C@H]2C)n1 :: 28
C[C@@H]1COCCN1c1nc(-c2cnc(N)cc2Cl)cc(C2(S(C)(=O)=O)CC2)n1 :: 8

a: CC(=O)NC1(c2cc(-c3cnc(N)cc3C(F)(F)F)nc(N3CCOCC3)n2)CC1
b: CCS(=O)(=O)C1(c2cc(-c3cnc(N)cc3F)nc(N3CCOCC3)n2)CC1
c: Nc1cc(C(F)(F)F)c(-c2cc(C3(S(=O)(=O)c4ccccc4Cl)CC3)nc(N3CCOCC3)n2)cn1
d: CC(C)(c1cc(-c2cnc(N)cc2C(F)(F)F)nc(N2CCOCC2)n1)S(=O)(=O)c1ccc(F)c(F)c1
e: Cc1cnc(C2(c3cc(-c4cnc(N)cc4C(F)(F)F)nc(N4CCOCC4)n3)CC2)o1
## Input Sequence the entries by IC50, beginning with the highest number. Present the labels in the sequence the task asks for.
## Output a, e, d, b, c
(a: 390 nM, e: 195 nM, d: 55 nM, b: 29 nM, c: 7 nM)
